System: R10K6 (RNA, aptamer) GGGAGACGCAACUGAAUGAAAAUGUCAUUCAAGACUAGGUUGUGACUGCUUAGGCAGUUGUGGACGGCUAAGCCCACCAGAGGUCCGUAACUAGUCGCGUCAC
method-notes: fluorescence titration (ligand quenching)
stated-conditions: 125 mM K+, 5 mM Mg2+; 40 mM HEPES pH 7.4, 25 °C, 50 nM ligand, RNA titrated, Hill fit
recorded-endpoint: binding

CN1C[C@@H]2C[C@H]1CN2c1cc2c(cc1F)c(=O)c(C(=O)O)cn2C1CC1: yes
O=c1ccn(C2CC2)c2cc(N3CCNCC3)c(F)cc12: weak
CCN1CCN(c2cc3c(cc2F)c(=O)c(C(=O)O)cn3C2CC2)CC1: yes
CCn1cc(C(=O)O)c(=O)c2cc(F)c(N3CCNCC3)cc21: yes
